Reported Enzyme Activity Endpoint Assay: IgG values for a set of proteins
Target: pooled human IgG (human IgG1,2,3 and 4)
Give just the number in ng/µL; leave the unit off.

PRT-97 (protein) MANQEIRYSEVTPYHVTSVWTKGVTPPAKFTQGEDVFHAPYVANQGWYDITKTFNGKDDLLCGAATAGNMLHWWFDQNKEKIEAYLKKHPEKQKIMFGDQELLDVRKVINTKGDQTNSELFNYFRDKAFPGLSARRIGVMPDLVLDMFINGYYLNVYKTQTTDVNRTYQEKDRRGGIFDAVFTRGDQSKLLTSRHDFKEKNLKEISDLIKKELTEGKALGLSHTYANVRINHVINLWGADFDSNGNLKAIYVTDSDSNASIGMKKYFVGVNSAGKVAISAKEIKEDNIGAQVLGLFTLSTGQDSWNQTN ... 0

Challenge: So what does the record say about Enzyme Activity Endpoint Assay: IgG for PRT-456 (protein) MITSVWTKGVTPPTDFIKGEDVFHAPYKAGQGWYDITKAFDGGDDLLCGAATAGNMLHWWFDQNKDQIEAYLKEHPEKQKINFNGEQMFDVKEAIDTKDDQTNSELFNYFKEKAFPYLSTKHLGVFPDHVLDMFINGYRLSLTNHGPTPVKEGSKDPRGGIFDAVFTRGDQSKLLTSRHDLKNKTLNEISQLIKQELTEGKALALSHTYANVRINHVINLWGADFDAEGNLEAIYVTDSDSNASIGMKKYFVGVNSAGKVAISAKEIEDDNIGAQVLGLFTLSTGQDIWNQTNLEHHHHHH ?
Response given: 0

Challenge: Next up: PRT-252 (protein) MVTSVWTKGVTPPTNFTYGEDVLHAPYVANQGWYDITKLFNGKDDLLCGAATAGNMLHWWFDQNKEQIENYLKKHPEKQKINFNGEQMFDVKEAIDTKDSQLDSKLFEYFLEKAFPNLSTKHLGVFPDHVIDMFINGYRLSLLNHGPTPVKRGSKDPRGGIFDAVFTRGDQSKLLTNRHDFKEKTLKEISDLIKQELTEGKALGISHTYANGRINHVINLWGADFDAEGNLEAIAVTDSDSNASIGMKKYFVGVNSSGKVAISAKEIEEDNIGAQVLGLFTLSTGQDIWNQTN
Response given: 56

Challenge: Next up: PRT-299 (protein) MVTSVWTKGVTPPTDFIKGEDVFHAPYKAGQGWYDITKTFNGKDDLLCGAATAGNMLHWWFDQNKEYIEAYLKKHPEKQKIMFGDQELLDVRKAINTKGSQKNSELFNYFRDKAFPNLSARRLGVMPDLVLDMFINGYYLNVTKTQTTDVNRTYQEKDKRGGIFDAVFTRGDQSKLLTSRHDFKEKGLKEISDLIKQELTEGKALGLSHTYANVRIGHVINLWGADFDSDGNLKAIYVTDSDSNASIGMKKYFVGVNSSGKVAISAKEIKEDNIGAQVLGLFTLSTGQDIWNQTN
Response given: 368

This collection of values is drawn from patent US20250027068.
